System: SNB-19 CNS
TEST DESCRIPTION: NCI-60 one-dose screen, 48 h (100 = growth as untreated, 0 = no growth, -100 = all killed)
ASSAY CONTEXT: 10 µM unless noted
About 83,000 compounds went through this panel and 20% of them were active in at least one assay; those are over-represented in the sample as a whole. Activity calls are given as the source filed them. How the source made its calls: active means growth percent below 10; inactive means the rest.
RECORDED METRIC: growth

INPUT: Which growth is listed for Cc1cccc(Oc2ccc(Nc3ncnc4ccc(NC(=O)CNCCO)cc34)cc2Cl)c1 ?
OUTPUT: 65.6% (inactive)

INPUT: And what about the molecule C=C(C)[C@@H]1CC[C@]2(CO)CC[C@]3(C)[C@H](CC[C@@H]4[C@@]5(C)CCCNC(C)(C)[C@@H]5CC[C@]43C)[C@@H]12 ?
OUTPUT: 49.6% (inactive)

INPUT: And what about the molecule COc1ccc(C(=O)c2cc3c(N)c(C(=O)Nc4cccc5ccccc45)sc3nc2C)cc1 ?
OUTPUT: 30.4% (inactive)

INPUT: And what about the molecule O=S(=O)(c1cccc(NC2=Nc3cccc4cccc2c34)c1)N1CCCC1 ?
OUTPUT: 77.8% (inactive)

INPUT: And what about the molecule c1ccc(-c2nnc(Nc3ccc4c(c3)OCCO4)o2)c(NCc2ccncc2)c1 ?
OUTPUT: 28.4% (inactive)

INPUT: And what about the molecule CCCCCCC/C=C/[C@H]1O[C@]2(O)C(=O)C=C3C[C@@H](O[C@@H]4O[C@H](CO)[C@@H](O)C(O)[C@@H]4O)C[C@@H]3[C@H]2C=C1C (stereo partly specified) ?
OUTPUT: 13% (inactive)

INPUT: And what about the molecule CCCCCCc1nc2nc(Cl)c(Cl)nc2[nH]1 ?
OUTPUT: 65.6% (inactive)

INPUT: And what about the molecule O=C(N/N=C/c1ccncc1)c1ccccc1Nc1cccc(C(F)(F)F)c1 ?
OUTPUT: 72.2% (inactive)

INPUT: And what about the molecule CC[C@H](CC[C@@H](C)[C@H]1CC[C@H]2[C@@H]3CC=C4C[C@@H](OCCc5nn[nH]n5)CC[C@]4(C)[C@H]3CC[C@]12C)C(C)C ?
OUTPUT: 110% (inactive)

INPUT: And what about the molecule N#Cc1c(NC(=O)c2cccc(Br)c2)sc2c1CCCC2 ?
OUTPUT: 81.1% (inactive)

INPUT: And what about the molecule CCOC(=O)c1c(C)nc2c(c1N)C(=O)C(=O)N2Cc1ccc(C(F)(F)F)cc1 ?
OUTPUT: 59.3% (inactive)

INPUT: And what about the molecule [O-][n+]1ccccc1CCN(O)CCc1cccc[n+]1[O-] ?
OUTPUT: 102% (inactive)

INPUT: And what about the molecule COc1cc2c(cc1[N+](=O)[O-])-c1ccc([N+](=O)[O-])cc1/C2=N/NC(N)=S ?
OUTPUT: 58.8% (inactive)

INPUT: And what about the molecule O=C(Nc1ccccc1)Oc1ccccc1-c1ccccc1 ?
OUTPUT: 99.5% (inactive)

INPUT: And what about the molecule Cn1c(COC(=O)N2CCCCC2)nc2c(N3CCOCC3)nc(-c3ccccc3)nc21 ?
OUTPUT: 17.7% (inactive)

INPUT: And what about the molecule CN(C)C(=O)c1cc2cnc(Nc3ccc(-c4csc5c(=O)cc(N6CCOCC6)oc45)cc3)nc2n1C1CCCC1 ?
OUTPUT: 1.45% (active)

====

Tested on: NCI-H322M lung
TEST DESCRIPTION: NCI-60 one-dose screen, 48 h (100 = growth as untreated, 0 = no growth, -100 = all killed)
ASSAY CONTEXT: 10 µM unless noted
Protocol: Growth inhibition of the NCI-H322M human Non-Small Cell Lung tumor cell line is measured as a screen for anti-cancer activity. Cells are grown in 96 well plates and exposed to the test compound for 48 hours. Compounds are tested at a single concentration, which is 10^-5 M for most compounds. The reported endpoint is percent growth (GI% or GIPRCNT), where numbers from 0 - 100% represent growth inhibition, and numbers from -100% - 0 represent cell death. […]
Compounds without any hit were thinned out: in the full panel of roughly 83,000, 20% have a hit.
So basically: growth at 80% or higher? That is 1.0. Lower than 80%? That is 0.0.

INPUT: Is the recorded value of growth equal to or greater than 80% for this compound? N/C(=N\N=C\c1cc2ccccc2s1)N/N=C/c1cc2ccccc2s1
OUTPUT: 1.0

INPUT: And what about the compound CN(C)C(=O)OCc1nc2c(N3CCOCC3)nc(-c3ccccc3)nc2n1C ?
OUTPUT: 0.0

INPUT: And what about the compound COc1ccc(C(O)c2cc3c(N)c(C(=O)Nc4ccc(Br)cc4)sc3nc2C)cc1 (stereo not given) ?
OUTPUT: 0.0

INPUT: And what about the compound O=C(OC(OC(=O)c1cc(Cl)cc(Cl)c1)c1cccc2ccccc12)c1ccccc1 (stereo not given) ?
OUTPUT: 1.0

INPUT: And what about the compound CC(=O)OC1CCC2(C)C(CCC3C4CC=C(C(C)=O)C4(C)OC(=O)CC32)C1 (stereo not given) ?
OUTPUT: 1.0

INPUT: And what about the compound O=C(Nc1cccc(Cl)c1)c1cc(Cl)ccc1O ?
OUTPUT: 0.0

INPUT: And what about the compound CCSc1ccc2c(c1)N(CCCN1CCN(C)CC1)c1ccccc1S2 ?
OUTPUT: 0.0

INPUT: And what about the compound O=c1[nH]nc(-c2ccc(Cl)cc2)cc1Cc1cccc([N+](=O)[O-])c1 ?
OUTPUT: 1.0

INPUT: And what about the compound O=C1Nc2c(ccc(Cl)c2Cl)/C1=C/c1ccccn1 ?
OUTPUT: 1.0

====

System: OVCAR-4 ovarian
TEST DESCRIPTION: NCI-60 one-dose screen, 48 h (100 = growth as untreated, 0 = no growth, -100 = all killed)
ASSAY CONTEXT: 10 µM unless noted
The panel holds about 83,000 compounds, 20% with a hit somewhere; the sample as a whole holds those more often. The source made the active and inactive calls. The calls were made as follows: active = growth percent below 10; inactive = the rest.
RECORDED METRIC: growth

INPUT: Which growth is listed for Clc1nc(Cl)c2ncn(CC3(Cn4cnc5c(Cl)nc(Cl)nc54)COC3)c2n1 ?
OUTPUT: -87.9% (active)

INPUT: And what about the compound Cc1cn(-c2cc(C(=O)Nc3cccc(C#Cc4cccc5[nH]nc(N)c45)c3)cc(C(F)(F)F)c2)cn1 ?
OUTPUT: 38% (inactive)

INPUT: And what about the compound CC(=O)[C@@H]1CC[C@]2(C(N)=O)CC[C@]3(C)[C@H](CC[C@@H]4[C@@]5(C)CCC(=O)C(C)(C)[C@@H]5CC[C@]43C)[C@@H]12 ?
OUTPUT: 89.1% (inactive)

INPUT: And what about the compound O=C(Nc1sc2c(c1C(=O)O)CCCC2)c1cccc(C(F)(F)F)c1 ?
OUTPUT: 86.2% (inactive)

INPUT: And what about the compound Nc1cc(N)c2cccnc2c1O ?
OUTPUT: 91.2% (inactive)

INPUT: And what about the compound O=C(N=Nc1c(O)[nH]c2ccc(F)cc12)c1cc2ccccc2[nH]1 ?
OUTPUT: 99.9% (inactive)

INPUT: And what about the compound CN1CCN(c2cnc(C(=O)Nc3cc(F)cc4cccnc34)cn2)CC1 ?
OUTPUT: 8.94% (active)

INPUT: And what about the compound COc1cc(/C=C/C(=O)c2c(C)oc3nc[nH]c(=O)c23)ccc1O ?
OUTPUT: 101% (inactive)

INPUT: And what about the compound OC1(c2ccc(Cl)c(C(F)(F)F)c2)CCN(CCCC(c2ccc(F)cc2)c2ccc(F)cc2)CC1 ?
OUTPUT: -10.8% (active)

INPUT: And what about the compound Fc1ccc2nc3c(cc2c1)CSc1nnc(-c2ccc[nH]c2=S)n1N3 ?
OUTPUT: 91.5% (inactive)

INPUT: And what about the compound FC(F)(F)c1cccc(Nc2ccccc2)c1 ?
OUTPUT: 108% (inactive)

INPUT: And what about the compound CN1CCN(CC#CCNC(=O)[C@]23CCC(C)(C)C[C@H]2C2=CC[C@@H]4[C@@]5(C)Cc6c([nH]c7ccccc67)C(C)(C)[C@@H]5CC[C@@]4(C)[C@]2(C)CC3)CC1 ?
OUTPUT: 77.8% (inactive)

INPUT: And what about the compound CCCC/C(=N\N=C(N)N)c1ccc(F)cc1 ?
OUTPUT: 39.7% (inactive)

INPUT: And what about the compound C=C(C)[C@H]1CC/C(C)=C/CC[C@]2(C)O[C@H]2CC/C(COC(=O)[C@@H](OC(C)=O)[C@H](NC(=O)c2ccccc2)c2ccccc2)=C\[C@@H]1O ?
OUTPUT: 85.7% (inactive)

INPUT: And what about the compound Cc1cc(C)c(C=O)c(C)c1 ?
OUTPUT: 108% (inactive)

INPUT: And what about the compound CC(C)CN(C(=O)c1ccc(Cl)cc1)c1c(N)n(CC(C)C)c(=O)[nH]c1=O ?
OUTPUT: 107% (inactive)

INPUT: And what about the compound CCCCCOc1ccc(/C=N/Nc2cc(C)nc3ccc(Br)cc23)cc1 ?
OUTPUT: 4.88% (active)

INPUT: And what about the compound c1ccc(-c2nn(-c3ccccc3)[n+](-c3cccc4ccccc34)n2)cc1 ?
OUTPUT: 41.4% (inactive)

INPUT: And what about the compound Cc1c(C(=O)NO)sc2ncnc(Nc3ccc(NC(=S)Nc4ccccc4)cc3)c12 ?
OUTPUT: 105% (inactive)

INPUT: And what about the compound C#CCNC(=O)[C@H](Cc1ccccc1)NC(=O)[C@]12CC[C@@H](C(=C)C)[C@@H]1[C@H]1CC[C@@H]3[C@@]4(C)Cc5c([nH]c6ccccc56)C(C)(C)[C@@H]4CC[C@@]3(C)[C@]1(C)CC2 ?
OUTPUT: 108% (inactive)

INPUT: And what about the compound CCN1C(=O)N(CC)C2C1NN=c1s/c(=C3\C(=O)Nc4ccccc43)c(=O)n12 (stereo not given) ?
OUTPUT: 51.1% (inactive)

INPUT: And what about the compound CCOC(=O)Oc1c(OC)cc(C(=O)O[C@@H]2C[C@@H]3CN4CCc5c([nH]c6cc(OC)ccc56)[C@H]4C[C@@H]3[C@H](C(=O)OC)[C@H]2OC)cc1OC ?
OUTPUT: 94.7% (inactive)

INPUT: And what about the compound Cc1[nH]n(-c2cccc(Cl)c2)c(=O)c1/C=C1\C=Nc2ccc(Br)cc21 ?
OUTPUT: -89.9% (active)

INPUT: And what about the compound CCC(C)C(N)C(=O)NNc1n[nH]c(=S)n1N (stereo not given) ?
OUTPUT: 102% (inactive)

INPUT: And what about the compound Cc1nccc2c3ccc(OCc4cn(-c5ccc(Cl)cc5)nn4)cc3n(CCCc3ccccc3)c12 ?
OUTPUT: -51.1% (active)
